- procedure details: FRG1 promoter luciferase signal modulators, primary screen, FRG1 inhibition for FSHD, cell-based, C2C12 myotubes, firefly/Renilla luciferase, luminescence (AID 1084)
- test settings: higher = more signal, called active from +8 up or from −8 down
The source made the active and inactive calls.
test readout: z-score

compound | z-score
O=C1C2C=CC(C(O)Cc3ccccc3)N(Nc3ccc([N+](=O)[O-])cc3)C2C(=O)N1c1ccccc1 (configuration not stated) | 1.19 (inactive)
Cc1ccc(N2C(=O)c3ccccc3[C@@H](C(=O)NCC(F)(F)F)[C@@H]2c2ccc(CO)cc2)nc1 | -0.307 (inactive)
CC(C)[Si](OCCCNS(=O)(=O)c1ccc(Br)cc1)(C(C)C)C(C)C | -3.13 (inactive)
O=C1c2ccccc2[C@](Cc2ccccc2I)(C(=O)O)[C@H](c2ccc(CO)cc2)N1C1CCCCC1 | 0.287 (inactive)
C=CCC(OC(C)=O)[C@@H]1[C@@H](N(Cc2cc3ccccc3o2)C(=O)Cc2ccc(F)cc2)c2cc(OCCCO)ccc2N1C(=O)c1ccc(-c2ccccc2)cc1 (some centres not stated) | 0.051 (inactive)
COC(=O)[C@@]1(Cc2ccccc2N=[N+]=[N-])N=C(c2ccc(OCCCO)cc2)O[C@H]1c1ccccc1CN=[N+]=[N-] | -1.38 (inactive)
CC(C)[Si]1(C(C)C)O[C@@H](c2ccccc2)c2cc(C3CC3)nc(-c3ccc(Oc4ccccc4)cc3)c21 | -0.895 (inactive)
CCc1cccc(NC(=O)O[C@H]2[C@H](OC(=O)Nc3ccccc3)[C@@H](OC(=O)Nc3ccccc3)[C@@H](OC)O[C@@H]2CO)c1 | 0.825 (inactive)
COCCOC(=O)N1C(=O)[C@@]2(c3cc(C#CC4(O)CCCCCC4)ccc31)[C@H](C(=O)N1CCCCCCC1)[C@H]1C(=O)O[C@H](c3ccccc3)[C@H](c3ccccc3)N1[C@@H]2c1ccc(O)cc1 | -0.492 (inactive)
NC(=O)NCC#Cc1ccc2c(c1)[C@]1(C(=O)N2)[C@H](C(N)=O)[C@H]2C(=O)O[C@H](c3ccccc3)[C@H](c3ccccc3)N2[C@@H]1c1ccccc1OCCO | -0.317 (inactive)

Dear colleague, could you send me z-score for each of the items below? Thanks.
1. COC(=O)Cn1c(C(=O)N2CCCC2)cc2c1C[C@H]1CN(C(=O)c3ccccc3)[C@@](Cc3ccccc3)(C(=O)OC)[C@@H]21
2. COc1ccc([Si](C)(C)[C@@H]2[C@@H](CC(=O)N(CCO)Cc3ccccc3)O[C@]3(C(=O)N(Cc4cccc(N5CCC5=O)c4)c4ccccc43)[C@H]2C)cc1
3. CCN1C(C)=C(C(=O)OC)[C@@H](c2ccccc2)N2C(=O)[C@](O)(C(=O)OC)[C@@H](c3ccccc3)C(C(C)=O)=C12
4. COc1ccc([Si](C)(C)[C@H]2[C@H](CCO)O[C@@]3(C(=O)N(Cc4ccc(N5CCCCC5=O)cc4)c4ccccc43)[C@@H]2C)cc1
5. Cc1ccc(S(=O)(=O)N2[C@@H](c3ccccc3)C(C(=O)O)=CC[C@H]2c2ccccc2)cc1
6. C=CCC(OC(C)=O)[C@@H]1[C@@H](N(Cc2ccc(-c3cccc(C(F)(F)F)c3)o2)C(=O)Cc2ccc(F)cc2)c2cc(OCCCO)ccc2N1C(=O)c1ccc(-c2ccccc2)cc1 (some centres not stated)
7. COc1ccc([Si](C)(C)[C@@H]2[C@@H](CCO)O[C@]3(C(=O)N(Cc4ccc(NC(=O)[C@H](C)O)cc4)c4ccccc43)[C@H]2C)cc1

Solution:
["1.07 (inactive)", "-0.645 (inactive)", "-1.88 (inactive)", "-4.59 (inactive)", "-2.89 (inactive)", "-0.245 (inactive)", "-4.16 (inactive)"]

Dear colleague, could you send me z-score for each of the items below? Thanks.
1. C[C@@H]1CC[C@H]2C(=O)N3[C@@H](CC[C@@H](C)[C@@H]3c3cccc(N4CCOCC4)c3)C(=O)N2[C@H]1c1cccc(Br)c1
2. C=CCC(OC(C)=O)[C@@H]1[C@@H](N(Cc2cccc3ccccc23)C(=O)c2ccc(C)cc2)c2cc(OCCCO)ccc2N1C(=O)c1ccc(-c2ccccc2)cc1 (some centres not stated)

Solution:
-0.649 (inactive)
-2.1 (inactive)

Dear colleague, could you send me z-score for each of the items below? Thanks.
1. Cc1ccc(S[C@]2(C(=O)NCCCN(C)C)CC(=O)N(C3CCCCC3)[C@@H]2c2ccc(CO)cc2I)cc1
2. O=C(CS)NCCCCCNC(=O)[C@H]1C[C@H]2C(=O)N[C@@H](Cc3ccccc3)C(=O)N2[C@H]1c1ccc(O)cc1
3. C[C@@H]1C=CCC(=O)OC[C@H]2O[C@@H](C=C[C@@H]2O)[C@H](C)C=CCC(=O)OC[C@H]2O[C@H]1C=C[C@@H]2O
4. C[C@H]1NC(=O)[C@@H](C)NC(=O)[C@@]23C(=O)N[C@@H](Cc4ccccc4)C2[C@H](C)[C@@]2(C)O[C@H]2C3/C=C/C/C=C\CNC1=O (some centres not stated)

Solution:
1. -1.31 (inactive)
2. 0.658 (inactive)
3. -0.274 (inactive)
4. 0.0028 (inactive)

Dear colleague, could you send me z-score for each of the items below? Thanks.
1. CO[C@H]1COC(=O)CC=C[C@H](C)[C@@H](OC)COC(=O)[C@H](Cc2ccccc2)NC(=O)CC=C[C@@H]1C
2. CO[C@@H]1COC(=O)CC=C[C@H](C)COC(=O)[C@H](Cc2ccccc2)NC(=O)CC=C[C@H]1C
3. COc1ccc([Si](C)(C)[C@H]2[C@H](CC(=O)N3Cc4ccccc4C[C@H]3CO)O[C@@]3(C(=O)N(Cc4cccc(N5CCOC5=O)c4)c4ccccc43)[C@@H]2C)cc1

Solution:
1: -1.01 (inactive); 2: -0.533 (inactive); 3: -2.72 (inactive)

Input [N-]=[N+]=NCc1ccccc1C[C@@]1(C(=O)N2CCOCC2)N=C(c2ccc(OCCCO)cc2)O[C@@H]1c1ccccc1N=[N+]=[N-] . Output z-score: -2.14 (inactive)
